The reported measurements were obtained from ChEMBL document CHEMBL1201862.

Tested on: MDA-N
experiment notes: NCI tumour cell line growth inhibition, 48 h
Active and inactive are the calls of the source. Cut-off read from the data, not from the text of the source: active = GI50 up to about 1.1 µM and inactive = higher.
// classify into active, inactive

O=C1c2scc(-c3ccccc3)c2-n2cccc21 ... inactive

[in] Per the records of this test, what outcome belongs to Brc1cccc(Nc2ncnc3sc4c(c23)CCC(Nc2cccc(Br)c2)C4)c1 (stereo unspecified) ?
[out] inactive

[in] Each compound tested received a call. Report the one for "CCCCN1CSC(=S)N(Cc2ccccc2)C1" .
[out] inactive

[in] Tell me the recorded outcome of this test for "CCOC(=O)c1nc2c(nc1C(=O)OCC)C(=O)c1ccccc1C2=O" .
[out] active

[in] Identify the outcome logged in this assay for the compound shown: CCCCCCCCCC(O)CC(=O)c1c(O)cccc1O (stereo unspecified)
[out] inactive

[in] Field: outcome | Entry: "COC(=O)Nc1nc2cc(NS(=O)(=O)c3ccc(Cl)cc3)ccc2[nH]1"
[out] inactive

###

System: KM12
experiment notes: NCI tumour cell line growth inhibition, 48 h
Active and inactive are the calls of the source. Cut-off read from the data, not from the text of the source: active = GI50 up to about 1.1 µM and inactive = higher.
quantity: GI50

[in] Query GI50 for "COc1cc2c(cc1OCc1ccccc1)NC(=S)[C@@H]1CCCN1C2=S"
[out] 30.1 µM (inactive)

[in] Tell me measured GI50 for "Cc1c(C(=O)/C=C/c2ccc([N+](=O)[O-])cc2)[n+]([O-])c2ccccc2[n+]1[O-]" please.
[out] 93.5 µM (inactive)

[in] Given the compound CC1=NN(c2cccc(Cl)c2)C2(SCC(=O)N2c2nc3ccccc3s2)/C1=C\c1ccccc1O (stereo unspecified) , write its reported GI50.
[out] 19.7 µM (inactive)

[in] Recall and state the measured GI50 for CCCCC(N)CSSCC(N)CCCC (stereo unspecified) .
[out] 49.2 µM (inactive)

###

System: MDA-N
experiment notes: NCI tumour cell line growth inhibition, 48 h
Active and inactive are the calls of the source. No stated cut-off is given here; in the data, active = GI50 up to about 1.1 µM and inactive = higher.
Thanks in advance; please answer with one of these: YES for active, NO for inactive

CCOc1ccccc1/N=N/C1C(=O)N(C(=O)CC(=O)Nc2ccccc2C)N=C1C (stereo unspecified) ... NO

[in] Which outcome did this test record for the compound CC(=O)N1N=C(c2ccc3ccccc3c2O)CC1c1ccc(Cl)cc1Cl (stereo unspecified) ?
[out] NO

[in] # fetch the recorded call for "c1ccc([P+](Cc2ccc(C[P+](c3ccccc3)(c3ccccc3)c3ccccc3)s2)(c2ccccc2)c2ccccc2)cc1" here
[out] NO

[in] Answer briefly: the call reported for "CC[C@H](NC(=O)OC(C)(C)C)C(=O)NCP(=O)(OCc1ccc([N+](=O)[O-])cc1)OCc1ccc([N+](=O)[O-])cc1" in this assay.
[out] NO

[in] Hi, do you know how CC(=O)Nc1ccc2c3c(cc(O)c2c1)N(C(=O)CCCC(=O)Nc1ccc2c4c(cc(O)c2c1)N(C(=O)OC(C)(C)C)CC4CCl)CC3CCl (stereo unspecified) came out in this test?
[out] YES

[in] Outcome logged for CCOP(=O)(OCC)C1CC(n2cc(C)c(=O)[nH]c2=O)OC1CO (stereo unspecified) in this assay:
[out] NO

[in] Recorded test outcome, item COc1ccc(-c2c(C(=O)Nc3ccccc3)c(-c3ccccc3)n(C3OC(CO)C(O)C(O)C3O)c(=S)c2C#N)cc1 (stereo unspecified)
[out] NO

[in] Any idea what this test logged for CN1C(=O)CC2(C)c3cc(O)ccc3N(C)C12 (stereo unspecified) ?
[out] NO

[in] Give the logged outcome of this assay for the following compound: "NC(=O)NNCc1ccccc1"
[out] NO

###

Tested on: EKVX
experiment notes: NCI tumour cell line growth inhibition, 48 h
The source made the active and inactive calls. No stated cut-off is given here; in the data, active = GI50 up to about 1.1 µM and inactive = higher.
The entries below are paired with their reported GI50.

[in] Give the value of GI50 reported for the following: Cc1cc2ncn(C3CCCCO3)c2cc1C (stereo not given)
[out] > 100 µM (inactive)

[in] Please supply the value of reported GI50 for the item "COc1cccc(NC(=O)CSc2nnc(-c3ccc(/N=C\c4ccc(Cl)cc4)cc3)o2)c1"
[out] 36.7 µM (inactive)

[in] Report measured GI50; entry is "NC(=O)NNCc1ccccc1"
[out] > 100 µM (inactive)

###

// values below are reported GI50
Test system: SK-MEL-28
experiment notes: NCI tumour cell line growth inhibition, 48 h
The source made the active and inactive calls. No stated cut-off is given here; in the data, active = GI50 up to about 1.1 µM and inactive = higher.

Look over these answered cases.
O=C1NC(=S)N(c2cccc3ccccc23)C(=O)/C1=C/c1c[nH]c2ccccc12 ... 2.26 µM (inactive)
OC1CC(O)c2c(Cl)sc(Cl)c21 (configuration not stated) ... 29.9 µM (inactive)
COC1(C)/C=N/CC(C)(C)NC(=O)C(C)(OC)/C=N/CC(C)(C)NC1=O (configuration not stated) ... > 10 µM (inactive)
CCc1c(-c2ccccc2)[nH]c2ccccc2c1=O ... 67.9 µM (inactive)

[in] For the compound CCCCCCCCCC(O)CC(=O)c1c(O)cccc1O (configuration not stated) , report GI50.
[out] 41.5 µM (inactive)

[in] Annotate the compound "CC(C)c1cc(=O)[nH]c2cc(N)ccc12" with its measured GI50.
[out] > 100 µM (inactive)

[in] Consider the compound "CCCCNC1=C2C(=O)NN=C2CO1" . State its measured GI50.
[out] > 100 µM (inactive)

[in] Fill in reported GI50 for this entry: OCC(O)COCn1cc(Cn2ncc3c(SCc4ccccc4)ncnc32)nn1 (configuration not stated)
[out] > 100 µM (inactive)

[in] Entry "Brc1ccc2c(c1)-c1nc3nc4c(cc3cc1CC2)CCc1ccc(Br)cc1-4" needs its GI50 filled in; supply it.
[out] > 100 µM (inactive)

[in] Please look at this compound and report its GI50: "CCOC(=O)c1c(O)nc(O)c(CC)c1C"
[out] > 100 µM (inactive)

[in] Specify GI50 for C=C(c1ccccc1)C1(O)CCCCC1N (configuration not stated) and stop.
[out] > 100 µM (inactive)

[in] Identify GI50 associated with the compound "O=[N+]([O-])c1ccc2c(/N=N/c3c(O)ccc4ccccc34)c(O)cc(S(=O)(=O)O)c2c1"
[out] 10.1 µM (inactive)

###

System: SK-OV-3
experiment notes: NCI tumour cell line growth inhibition, 48 h
The source made the active and inactive calls. No stated cut-off is given here; in the data, active = GI50 up to about 1.1 µM and inactive = higher.
Would you mind answering with one of these outcomes? active, inactive

Illustrative cases are given below, each with its answer.
CCCCCCCCC(=O)NCCN(CCN)C(=O)CCCCCCCC ... inactive
Nc1nc(Nc2ccc(Cl)cc2)sc1C(=O)c1cc2ccccc2oc1=O ... inactive

[in] Recorded test call requested for COc1cc(/C=C2\CCC/C(=C\c3ccc(O)c(OC)c3)C2=O)ccc1O [CYCLOVALONE]
[out] inactive

[in] # outcome recorded in this test, key = "COc1ccc(/C=C2\C[C@H]3[C@@H]4CCC5=CC(=O)CC[C@]5(C)[C@H]4CC[C@]3(C)C2=O)cc1OC"
[out] active

[in] Tell me the recorded outcome of this test for CCCCC1(N=[N+]=[N-])C(=O)C2C=CC=C3c4ccccc4N(C1=O)C32 (stereo unspecified) .
[out] inactive

[in] For CCOc1ncn(-c2ccc(NC(=S)NC3OC(CO)C(O)C(O)C3O)cc2)n1 (stereo unspecified) , which call appears in the assay record?
[out] inactive

[in] Tell me the assay call for "Brc1ccc2c(c1)-c1nc3nc4c(cc3cc1CC2)CCc1ccc(Br)cc1-4" please.
[out] inactive

[in] Can you look up the reported call for CCCCC(N)CSSCC(N)CCCC (stereo unspecified) for me?
[out] inactive

[in] Kindly provide the recorded test outcome for the following compound: "O=C(O)CCNS(=O)(=O)c1ccc2ccccc2c1"
[out] inactive

[in] Which result was noted for this compound in the test: "O=c1[nH]n2c(=O)cc[nH]c2c1-c1nnns1"
[out] inactive

[in] Lab log entry: CCOC(=O)c1ccc2nc3n(c2c1)C(c1c(F)cccc1F)SC3 (stereo unspecified) — outcome as called in the assay?
[out] inactive

###

System: IGROV-1
experiment notes: NCI tumour cell line growth inhibition, 48 h
Active and inactive are the calls of the source. Cut-off read from the data, not from the text of the source: active = GI50 up to about 1.1 µM and inactive = higher.
Please state which outcome applies, choosing from 1 (yes) for active, 0 (no) for inactive

Below, 5 compounds whose answers are already recorded.
COC[C@@H](Cc1ccc(OC)c(OC)c1)[C@@H](COC)Cc1ccc(OC)c(OC)c1 ... 0 (no)
OC1CC(O)c2c(Cl)sc(Cl)c21 (stereo not drawn) ... 0 (no)
CC(=O)Oc1cc2c(n(C)c1=O)CCC2 ... 0 (no)
Nn1c(=O)[nH]c2ncn(Cc3ccccc3)c2c1=O ... 0 (no)
N/N=C(/Cc1nc2ccc(C(=O)c3ccccc3)cc2nc1O)C(=O)Nc1ccc([N+](=O)[O-])cc1[N+](=O)[O-] ... 0 (no)

[in] What is the recorded call for this compound in the test? "O=C(CSc1nccc(=O)[nH]1)c1ccccc1"
[out] 0 (no)

[in] Recorded test call requested for "O=C1N[C@@H]2CCC[C@@H]2[C@@H]1c1ccc(Cl)cc1"
[out] 0 (no)

[in] Outcome? "Clc1sc(Cl)c2c1[C@@H](Cl)C[C@@H]2Cl"
[out] 0 (no)

[in] So what was the verdict on CC(=O)NC1C(OCc2ccccc2)OC(CO)C(O)C1OCC(=O)N[C@@H](C)C(=O)N[C@H](CCC(=O)NCCCNc1ccc([N+](=O)[O-])c2[nH]c3ccccc3c(=O)c12)C(N)=O (stereo partly drawn) in this test?
[out] 0 (no)

[in] # lookup: test call for "CC[C@H](NC(=O)OC(C)(C)C)C(=O)NCP(=O)(OCc1ccc([N+](=O)[O-])cc1)OCc1ccc([N+](=O)[O-])cc1"
[out] 0 (no)
